testSystem: RIP1 (ATP-binding pocket) (Homo sapiens)
Sequence (Q13546 1-375): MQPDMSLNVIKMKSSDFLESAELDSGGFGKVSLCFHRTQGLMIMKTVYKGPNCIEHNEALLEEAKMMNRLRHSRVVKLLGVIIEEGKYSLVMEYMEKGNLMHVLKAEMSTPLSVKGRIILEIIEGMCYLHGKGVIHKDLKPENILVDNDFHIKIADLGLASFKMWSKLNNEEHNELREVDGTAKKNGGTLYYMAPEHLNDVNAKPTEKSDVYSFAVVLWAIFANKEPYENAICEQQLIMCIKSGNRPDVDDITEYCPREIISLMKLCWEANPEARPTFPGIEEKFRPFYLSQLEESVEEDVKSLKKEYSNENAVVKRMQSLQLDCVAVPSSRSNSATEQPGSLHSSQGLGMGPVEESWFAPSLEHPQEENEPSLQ
readoutKind: IC50 (µM)

molecule="CN1C(=O)C(Cc2c[nH]c3ccccc23)NC1=S (stereo not shown) [Nec-1, Necrostatin-1, reference compound]" readoutvalue=2

Reference source for all entries: paper PMC4979471
